testedTarget: IKAROS (Homo sapiens, UniProt Q13422+Q96SW2)
Construct: endogenous in cells; host or cells: MV-4-11
Sequence (Q13422 whole entry): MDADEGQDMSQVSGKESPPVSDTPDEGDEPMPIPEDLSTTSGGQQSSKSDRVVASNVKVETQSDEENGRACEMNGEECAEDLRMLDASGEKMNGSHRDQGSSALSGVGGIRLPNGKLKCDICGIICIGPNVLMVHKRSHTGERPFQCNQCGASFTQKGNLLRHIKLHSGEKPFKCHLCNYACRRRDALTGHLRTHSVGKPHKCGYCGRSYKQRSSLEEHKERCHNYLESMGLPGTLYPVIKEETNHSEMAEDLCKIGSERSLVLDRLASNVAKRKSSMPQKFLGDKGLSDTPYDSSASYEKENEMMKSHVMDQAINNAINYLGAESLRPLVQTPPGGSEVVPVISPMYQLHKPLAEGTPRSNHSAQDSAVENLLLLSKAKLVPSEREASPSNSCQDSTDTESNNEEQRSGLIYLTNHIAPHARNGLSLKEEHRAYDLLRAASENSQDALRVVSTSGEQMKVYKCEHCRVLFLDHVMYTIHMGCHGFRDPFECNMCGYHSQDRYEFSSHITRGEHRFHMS
Sequence (Q96SW2 whole entry): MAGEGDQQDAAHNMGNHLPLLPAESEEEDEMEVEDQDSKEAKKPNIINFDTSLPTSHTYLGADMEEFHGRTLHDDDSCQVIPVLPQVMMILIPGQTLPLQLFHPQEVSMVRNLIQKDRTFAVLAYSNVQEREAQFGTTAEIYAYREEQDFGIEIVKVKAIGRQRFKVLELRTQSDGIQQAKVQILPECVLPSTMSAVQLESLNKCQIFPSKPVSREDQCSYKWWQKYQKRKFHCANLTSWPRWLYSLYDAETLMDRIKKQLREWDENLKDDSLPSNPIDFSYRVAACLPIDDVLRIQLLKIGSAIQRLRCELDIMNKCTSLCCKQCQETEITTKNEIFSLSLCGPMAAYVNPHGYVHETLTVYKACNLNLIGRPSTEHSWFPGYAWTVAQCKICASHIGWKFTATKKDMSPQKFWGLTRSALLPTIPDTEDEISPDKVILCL
Sequence (Q16531 whole entry partner): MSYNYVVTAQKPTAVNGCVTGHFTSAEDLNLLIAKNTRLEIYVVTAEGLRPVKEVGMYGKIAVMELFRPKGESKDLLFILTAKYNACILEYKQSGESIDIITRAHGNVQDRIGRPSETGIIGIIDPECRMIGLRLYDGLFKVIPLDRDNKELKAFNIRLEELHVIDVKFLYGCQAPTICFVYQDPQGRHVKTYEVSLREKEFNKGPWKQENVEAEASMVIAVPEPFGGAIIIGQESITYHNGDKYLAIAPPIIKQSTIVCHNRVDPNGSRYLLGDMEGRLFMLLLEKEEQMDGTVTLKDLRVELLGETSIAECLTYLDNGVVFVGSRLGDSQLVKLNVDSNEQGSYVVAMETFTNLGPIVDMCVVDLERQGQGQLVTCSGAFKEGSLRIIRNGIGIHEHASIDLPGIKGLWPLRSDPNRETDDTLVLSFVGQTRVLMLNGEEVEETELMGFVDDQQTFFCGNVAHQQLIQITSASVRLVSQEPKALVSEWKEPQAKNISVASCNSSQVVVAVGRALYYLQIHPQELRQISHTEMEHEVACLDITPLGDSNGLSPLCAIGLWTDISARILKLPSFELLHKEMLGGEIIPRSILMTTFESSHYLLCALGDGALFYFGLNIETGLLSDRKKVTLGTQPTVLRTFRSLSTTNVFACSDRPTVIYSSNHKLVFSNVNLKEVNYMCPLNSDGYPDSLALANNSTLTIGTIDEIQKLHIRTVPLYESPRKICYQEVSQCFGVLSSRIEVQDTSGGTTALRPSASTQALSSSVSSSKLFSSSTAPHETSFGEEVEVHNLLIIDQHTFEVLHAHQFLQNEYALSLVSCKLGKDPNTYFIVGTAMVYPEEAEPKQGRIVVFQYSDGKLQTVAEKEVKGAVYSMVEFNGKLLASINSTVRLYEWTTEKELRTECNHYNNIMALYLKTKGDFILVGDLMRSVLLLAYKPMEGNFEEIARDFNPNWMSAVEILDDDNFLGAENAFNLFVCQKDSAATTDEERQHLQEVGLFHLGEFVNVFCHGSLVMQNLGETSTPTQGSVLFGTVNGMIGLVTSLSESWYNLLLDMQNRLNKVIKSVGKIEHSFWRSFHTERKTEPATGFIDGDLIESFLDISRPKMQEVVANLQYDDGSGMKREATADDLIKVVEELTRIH
methodSummary: IKAROS degradation assay (Western blot, MV-4-11 cells)
Type: cell-based
testConditions: MV4-11, 1 μM, 6-8 hours

{"columns": ["compound", "IKAROS % degradation at 1 µM"],
 "data": [
  ["O=C1CC[C@H](N2Cc3c(csc3CCc3ccc(CN4CCOCC4)cc3)C2=O)C(=O)N1", "25 to 50%"],
  ["CC1COCC(C)N1Cc1ccc(OCc2scc3c2CN([C@H]2CCC(=O)NC2=O)C3=O)cc1 (stereo partly shown)", "50 to 75%"],
  ["O=C1CCC(N2Cc3c(CCc4ccc(CN5CCOCC5)cc4)csc3C2=O)C(=O)N1 (stereo not shown)", "25 to 50%"],
  ["O=C1CC[C@H](N2Cc3c(csc3COc3ccc(CN4CCOCC4)cc3)C2=O)C(=O)N1", "≥ 75%"]
]}

---

Listed here are compounds together with their documented inhibition at 10 µM.
Test system: IL-6
methodSummary: IL-6 inhibition assay, LPS-induced PBMCs or CD14+ monocytes, Meso Scale
Assay type: cell-based
testConditions: 1 h pretreatment, 100 ng/mL LPS 18-24 h, supernatant

{"columns": ["compound", "inhibition at 10 µM"],
 "data": [
  ["O=C1CC[C@H](N2Cc3c(csc3COc3ccc(CCN4CCOCC4)cc3)C2=O)C(=O)N1", "50 to 70%"],
  ["O=C1CC[C@H](N2Cc3c(csc3COc3ccc(CN4CCOCC4)cc3F)C2=O)C(=O)N1", "70 to 90%"],
  ["O=C1CC[C@H](N2Cc3c(csc3CNc3ccc(CN4CCOCC4)cc3)C2=O)C(=O)N1", "< 50%"],
  ["CC1COCC(C)N1Cc1ccc(OCc2scc3c2CN([C@H]2CCC(=O)NC2=O)C3=O)cc1 (stereo partly drawn)", "< 50%"],
  ["O=C1CC[C@H](N2Cc3c(csc3COc3ccc(CN4CCOCC4)cc3)C2=O)C(=O)N1", "50 to 70%"],
  ["CCN(CC)Cc1ccc(OCc2scc3c2CN([C@H]2CCC(=O)NC2=O)C3=O)cc1", "< 50%"]
]}

---

testedTarget: CK1α (Homo sapiens, UniProt P48729+Q96SW2)
Construct: Whole cell extracts were prepared using RIPA buffer; endogenous in cells; host or cells: MV-4-11
Sequence (P48729 whole entry): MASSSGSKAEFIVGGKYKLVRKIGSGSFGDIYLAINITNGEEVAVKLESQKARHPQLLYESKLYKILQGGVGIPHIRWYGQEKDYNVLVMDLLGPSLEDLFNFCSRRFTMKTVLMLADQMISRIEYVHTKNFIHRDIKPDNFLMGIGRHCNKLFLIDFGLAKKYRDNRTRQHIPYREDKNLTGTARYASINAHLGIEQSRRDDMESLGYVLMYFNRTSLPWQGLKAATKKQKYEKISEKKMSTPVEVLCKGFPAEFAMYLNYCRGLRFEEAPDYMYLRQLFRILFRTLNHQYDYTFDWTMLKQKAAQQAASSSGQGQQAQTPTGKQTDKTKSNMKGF
Sequence (Q96SW2 whole entry): as the sequence (Q96SW2 whole entry) above
Sequence (Q16531 whole entry partner): as the sequence (Q16531 whole entry partner) above
methodSummary: CK1α degradation assay (Western blot, MV-4-11 cells)
Type: cell-based
testConditions: MV4-11, 6-8 hours

{"columns": ["molecule", "percent degradation at 1 µM"],
 "data": [
  ["O=C1CC[C@H](N2Cc3c(csc3COc3ccc(CN4CCOCC4)cc3)C2=O)C(=O)N1 [Compound 1]", "≥ 75%"],
  ["O=C1CCC(N2Cc3c(CCc4ccc(CN5CCOCC5)cc4)csc3C2=O)C(=O)N1 (centres unmarked) [Compound 4]", "25 to 50%"],
  ["CN(C)Cc1ccc(OCc2scc3c2CN([C@H]2CCC(=O)NC2=O)C3=O)cc1 [Compound 18]", "≥ 75%"],
  ["CCN(CC)Cc1ccc(OCc2scc3c2CN([C@H]2CCC(=O)NC2=O)C3=O)cc1 [Compound 14]", "50 to 75%"],
  ["CC1CN(Cc2ccc(OCc3scc4c3CN([C@H]3CCC(=O)NC3=O)C4=O)cc2)CC(C)O1 (some centres unmarked) [Compound 17]", "≥ 75%"],
  ["O=C1CC[C@H](N2Cc3c(csc3COc3ccc(CCN4CCOCC4)cc3)C2=O)C(=O)N1 [Compound 15]", "25 to 50%"],
  ["CC1COCC(C)N1Cc1ccc(OCc2scc3c2CN([C@H]2CCC(=O)NC2=O)C3=O)cc1 (some centres unmarked) [Compound 19]", "≥ 75%"],
  ["O=C1CC[C@H](N2Cc3c(csc3COc3ccc(CN4CCCC4)cc3)C2=O)C(=O)N1 [Compound 13]", "50 to 75%"]
]}

Measured values drawn from patent US11191769B2 for this set.
